test system: Fibroblast; assay: Multiplex assay against human fibroblast; type: toxicity, cell-based; settings: 48 h, 10 µM, compound concentration 10 uM, replicate 1
Non-standard residues stand in square brackets, D forms with d. Residues, ends and D or L forms follow the SMILES beside them.
Listed compounds paired with reported Population Mitochondria Different-Phenotype (%)
Express your answer in %, writing the number without its unit.

Reference set (10 entries):
{"columns": ["compound", "unit-abbrev", "quantitative-readout"],
 "data": [
  ["COc1c(Nc2ccc(S(C)(=O)=O)nc2C)ncnc1OC1CCN(C(=O)OC(C)C)CC1 [ADP-597]", "%", 20],
  ["Cc1cc(-c2ccc3c(c2)CC[C@H]3N2CC3(CCN(C(=O)Cc4cn5cc(C)sc5n4)CC3)C2)ncn1 [PF-5190457]", "%", 12],
  ["COc1cc2nc(N3CCN(C(=O)c4ccco4)CC3)nc(N)c2cc1OC.Cl [PRAZOSIN HYDROCHLORIDE]", "%", 4],
  ["N[C@](CC1c2ccccc2Oc2ccccc21)(C(=O)O)[C@H]1C[C@@H]1C(=O)O", "%", 2],
  ["CCCCCCNC(=O)Nc1ccc(S(=O)(=O)Nc2ccc(CCNC[C@H](O)COc3ccc(O)cc3)cc2)cc1 [L-755507]", "%", 8],
  ["O=c1nc2[nH]c3ccccc3nc-2c(=O)[nH]1 [ALLOXAZINE]", "%", 3],
  ["Cc1c(Cc2ccc3ccccc3n2)c2cc(F)ccc2n1CC(=O)O [TIMAPIPRANT]", "%", 3],
  ["Nc1nc(-c2ccco2)c2cnn(Cc3ccccc3F)c2n1", "%", 10],
  ["CN(C)C/C=C/C(=O)Nc1ccc(C(=O)N2CCCC(Nc3ncc(Cl)c(-c4c[nH]c5ccccc45)n3)C2)cc1 (stereo unspecified)", "%", 55],
  ["Cl.Cl.OCCOCCN1CCN(C(c2ccccc2)c2ccc(Cl)cc2)CC1 (stereo unspecified) [HYDROXYZINE HYDROCHLORIDE]", "%", 7]
]}

// Population Mitochondria Different-Phenotype (%) value for CC(C)C[C@@H]1NC(=O)[C@@H](C(C)C)NC(=O)[C@@H]2CCCN2C(=O)[C@@H](CC(=O)O)NC(=O)[C@@H](Cc2c[nH]c3ccccc23)NC1=O [BQ-123] (cyclo(L[dW][dD]P[dV])) : 5

Just so you know, measured Population Mitochondria Different-Phenotype (%) for CN1C[C@H](C(=O)N[C@]2(C)O[C@@]3(O)[C@@H]4CCCN4C(=O)[C@H](Cc4ccccc4)N3C2=O)C[C@@H]2c3cccc4[nH]cc(c34)C[C@H]21.CS(=O)(=O)O [DIHYDROERGOTAMINE MESYLATE] came out at 3

For this compound ( `Cc1cc(O)c(-c2ccc([C@@H](C)CN(C)C)cc2)c2c1[nH]c(=O)c1sccc12` ), measured Population Mitochondria Different-Phenotype (%) is 53

Population Mitochondria Different-Phenotype (%) recorded for this compound, CN1CCN2c3ccccc3Cc3ccccc3C2C1.Cl (stereo unspecified) [MIANSERIN HYDROCHLORIDE] , is 2

Documented Population Mitochondria Different-Phenotype (%) of `S=C(NCCCc1c[nH]cn1)NCCCN(Cc1ccc(Cl)c(Cl)c1)c1ccc(Br)cn1` : 7

Population Mitochondria Different-Phenotype (%) in this record for O=C(O)CCC/C=C\CC1C(O)CC(O)C1/C=C/C(O)COc1cccc(Cl)c1 (stereo unspecified) [CLOPROSTENOL] : 2
